# Tested on: HeLa
# test_method_notes: Cytotoxicity against human HeLa cells assessed as colony formation at 10 uM after 2 weeks relative to control
# Type: cell-based
# reported_conditions: 336 h
endpoint: Activity (%)
Enter your answer as a number in %; do not include the unit.

Task: # query: Activity of entry Cc1ccc(-c2cs/c(=N/C(=O)c3ccccc3)n2C)c(C)c1
Result: 85

Task: # query: Activity of entry CCn1c(-c2ccccc2)cs/c1=N/C(=O)c1cccs1
Result: 45

---

# Tested on: MDA-MB-231
# test_method_notes: Cytotoxicity against human MDA-MB-231 cells assessed as colony formation at 10 uM after 2 weeks relative to control
# Format: cell-based
# reported_conditions: mda-mb-231, 336 h
Exercise: for every item that follows, state its recorded Activity.

Task: # query: Activity of entry COc1ccc(C(=O)Nc2nc(-c3ccccc3)cs2)cc1OC
Result: 57.3%

Task: # query: Activity of entry COc1cc(C(=O)Nc2nc(-c3ccccc3)cs2)cc(OC)c1OC
Result: 80.9%

Task: # query: Activity of entry CCCCCC(=O)Nc1nc(-c2ccccc2)cs1
Result: 90.7%

Task: # query: Activity of entry O=C(Nc1nc(-c2ccccc2)cs1)c1ccccc1
Result: 105.2%

Task: # query: Activity of entry O=C(Nc1nc(-c2ccccc2)cs1)C1CCCC1
Result: 99.8%

Task: # query: Activity of entry COc1cc(C(=O)/N=c2/scc(-c3ccccc3)n2C)cc(OC)c1OC
Result: 75.4%

Cited source for all entries: ChEMBL document CHEMBL2321666
